Measured values drawn from paper PMC4608253 for this set.

test: in vivo; assay type: in vivo, A/J mice; details: male, A/J, mouse, whole blood, po, 500 mg/kg
value_kind: half-life (h)
Numbers only, in h.

Example compounds with recorded half-life:
In [3]: df
Out[3]:
                                item_smiles  value_observed
0  CC1(C)[C@@H](O)CC[C@]2(C)[C@H]3C(=O)C=C4[C@@H]5C[C@@](C)(C(=O)O)CC[C@]5(C)CC[C@@]4(C)[C@]3(C)CC[C@@H]12            4.77
1  O=C1C[C@@H](c2ccc(O[C@@H]3O[C@H](CO)[C@@H](O)[C@H](O)[C@H]3O)cc2)Oc2cc(O)ccc21            9.33

Please fill in: half-life reported for COc1c(O)cc(O)c2c(=O)cc(-c3ccccc3)oc12 = 6.16

====

assay: in vivo; type: in vivo, A/J mice; settings: male, A/J, mouse, whole blood, po, 500 mg/kg
So I've got a bunch of molecules here, and I need their log10 of AUC(0-t) values.
Annotation: log10 of AUC(0-t), µM·h basis.

These recorded examples may help you get a feel for the data.
molecule	log10 of AUC(0-t)
O=c1cc(-c2ccccc2)oc2cc(O)c(O)c(O)c12 [Baicalein, baicalein]	-1.07
O=C(O)[C@H]1O[C@@H](Oc2cc3oc(-c4ccccc4)cc(=O)c3c(O)c2O)[C@H](O)[C@@H](O)[C@@H]1O [Baicalin, baicalin]	0.95
CC(C)=CCC[C@](C)(O[C@@H]1O[C@H](CO)[C@@H](O)[C@H](O)[C@H]1O)[C@H]1CC[C@]2(C)[C@@H]1[C@H](O)C[C@@H]1[C@@]3(C)CC[C@H](O)C(C)(C)[C@@H]3[C@@H](O[C@@H]3O[C@H](CO)[C@@H](O)[C@H](O)[C@H]3O[C@@H]3O[C@@H](C)[C@H](O)[C@@H](O)[C@H]3O)C[C@]12C [Re, ginsenoside Re]	-1.37
COc1c(O)cc(O)c2c(=O)cc(-c3ccccc3)oc12 [Wogonin, wogonin]	-0.96
O=C1C[C@@H](c2ccc(O[C@@H]3O[C@H](CO)[C@@H](O)[C@H](O)[C@H]3O)cc2)Oc2cc(O)ccc21 [Liquiritin]	-0.86

We next turn to a different molecule, shown below.
// log10 of AUC(0-t) value for CC1(C)[C@@H](O)CC[C@]2(C)[C@H]3C(=O)C=C4[C@@H]5C[C@@](C)(C(=O)O)CC[C@]5(C)CC[C@@]4(C)[C@]3(C)CC[C@@H]12 [GA, glycyrrhetinic acid] : 0.52

====

Please respond with reported Accuracy (RE, %) 4°C for 24 h for every item in the list.
assay type: physicochemical, mice; settings: stability, extracted QC sample in auto-sampler, spiked concentration 6.25
One number for each entry, in %.

compound	Accuracy (RE, %) 4°C for 24 h
CC(C)=CCC[C@](C)(O)[C@H]1CC[C@]2(C)[C@@H]1[C@H](O)C[C@@H]1[C@@]3(C)CC[C@H](O[C@@H]4O[C@H](CO)[C@@H](O)[C@H](O)[C@H]4O[C@@H]4O[C@H](CO)[C@@H](O)[C@H](O)[C@H]4O)C(C)(C)[C@@H]3CC[C@]12C [Rg3, ginsenoside Rg3]	8.64
C[C@@H]1O[C@@H](OC[C@H]2O[C@@H](Oc3c(-c4ccc(O)c(O)c4)oc4cc(O)cc(O)c4c3=O)[C@H](O)[C@@H](O)[C@@H]2O)[C@H](O)[C@H](O)[C@H]1O	12.7
C[C@H]1O[C@@H](O[C@H]2CC[C@@]3(C)[C@@H](CC[C@]4(C)[C@@H]3C=C[C@]35OC[C@@]6(CCC(C)(C)C[C@H]63)[C@@H](O)C[C@]54C)[C@]2(C)CO)[C@H](O)[C@@H](O[C@@H]2O[C@H](CO)[C@@H](O)[C@H](O)[C@H]2O)[C@H]1O	12

From here, focus on the item given below.
Measured Accuracy (RE, %) 4°C for 24 h of C[C@H]1O[C@@H](O[C@H]2CC[C@@]3(C)[C@@H](CC[C@]4(C)[C@@H]3C=C[C@]35OC[C@@]6(CCC(C)(C)C[C@H]63)[C@H](O)C[C@]54C)[C@]2(C)CO)[C@H](O)[C@@H](O[C@@H]2O[C@H](CO)[C@@H](O)[C@H](O)[C@H]2O)[C@H]1O : 13.1

====

Can you tell me Accuracy (RE, %) 25°C for 6 h for the items I'm about to list?
format: physicochemical, mice; conditions: stability in mice plasma/blood QC sample, spiked concentration 500
One number for each entry, in %.

compound	Accuracy (RE, %) 25°C for 6 h
COc1c(O[C@@H]2O[C@H](C(=O)O)[C@@H](O)[C@H](O)[C@H]2O)cc(O)c2c(=O)cc(-c3ccccc3)oc12 [Wogonoside, wogonoside]	1.4

Recorded result, CC(C)=CCC[C@](C)(O[C@@H]1O[C@H](CO)[C@@H](O)[C@H](O)[C@H]1O)[C@H]1CC[C@]2(C)[C@@H]1[C@H](O)C[C@@H]1[C@@]3(C)CC[C@H](O)C(C)(C)[C@@H]3[C@@H](O[C@@H]3O[C@H](CO)[C@@H](O)[C@H](O)[C@H]3O[C@@H]3O[C@@H](C)[C@H](O)[C@@H](O)[C@H]3O)C[C@]12C [Re, ginsenoside Re] , Accuracy (RE, %) 25°C for 6 h: −0.3

====

assay: in vivo; format: in vivo, A/J mice; details: male, A/J, mouse, whole blood, po, 500 mg/kg
For each of the molecules below, state its AUC(0-inf).
Numbers only, in µM·h.

                                item_smiles  value_observed
0  O=C(O)[C@H]1O[C@@H](Oc2cc3oc(-c4ccccc4)cc(=O)c3c(O)c2O)[C@H](O)[C@@H](O)[C@@H]1O            9.71

Batch: AUC(0-inf) for all items listed.
1. O=C1C[C@@H](c2ccc(O[C@@H]3O[C@H](CO)[C@@H](O)[C@H](O)[C@H]3O)cc2)Oc2cc(O)ccc21
2. COc1c(O)cc(O)c2c(=O)cc(-c3ccccc3)oc12
3. O=c1cc(-c2ccccc2)oc2cc(O)c(O)c(O)c12

[0.137, 0.116, 0.119]

====

experiment: in vivo; type: in vivo, A/J mice; settings: male, A/J, mouse, whole blood, po, 0.5 g/kg
value_kind: Tmax
Remember to quote the unit after the number.

Below: 3 compounds and their reported Tmax.
                                item_smiles  value_kind  value_observed
0     COc1c(O)cc(O)c2c(=O)cc(-c3ccccc3)oc12        Tmax          0.17 h
1  CC1(C)[C@@H](O)CC[C@]2(C)[C@H]3C(=O)C=C4[C@@H]5C[C@@](C)(C(=O)O)CC[C@]5(C)CC[C@@]4(C)[C@]3(C)CC[C@@H]12        Tmax          7.25 h
2  O=C(O)[C@H]1O[C@@H](Oc2cc3oc(-c4ccccc4)cc(=O)c3c(O)c2O)[C@H](O)[C@@H](O)[C@@H]1O        Tmax          2.13 h

Input O=c1cc(-c2ccccc2)oc2cc(O)c(O)c(O)c12 . Output Tmax: 0.083 h

====

assay type: physicochemical, mice; details: stability, extracted QC sample in auto-sampler, spiked concentration 62.5
Task for the reader: assign each of the following compounds its reported Accuracy (RE, %) 4°C for 24 h.
Numbers only, in %.

For orientation, consider the following solved cases.
compound	value_observed
CCCCC[C@H](O)CC(=O)CCc1ccc(O)c(OC)c1	−8.4
O=C(O)[C@H]1O[C@@H](Oc2cc3oc(-c4ccccc4)cc(=O)c3c(O)c2O)[C@H](O)[C@@H](O)[C@@H]1O	14.8

Each compound below has a reported value. Please supply its Accuracy (RE, %) 4°C for 24 h.
1. CC(C)=CCC[C@](C)(O[C@@H]1O[C@H](CO)[C@@H](O)[C@H](O)[C@H]1O)[C@H]1CC[C@]2(C)[C@@H]1[C@H](O)C[C@@H]1[C@@]3(C)CC[C@H](O)C(C)(C)[C@@H]3[C@@H](O[C@@H]3O[C@H](CO)[C@@H](O)[C@H](O)[C@H]3O)C[C@]12C [Rg1, ginsenoside Rg1]
2. COc1cc(CCC(C)=O)ccc1O

10.1
−1

Quick batch: Accuracy (RE, %) 4°C for 24 h for everything below.
1. COc1ccc(-c2coc3cc(O)ccc3c2=O)cc1
2. O=C1C[C@@H](c2ccc(O[C@@H]3O[C@H](CO)[C@@H](O)[C@H](O)[C@H]3O)cc2)Oc2cc(O)ccc21

1: 13.6; 2: 15

====

assay type: physicochemical, mice; details: stability in mice plasma/blood QC sample, spiked concentration 62.5
value_kind: Accuracy (RE, %) 25°C for 6 h
Answers are plain numbers, in %.

# annotated cases, reported Accuracy (RE, %) 25°C for 6 h shown
compound	Accuracy (RE, %) 25°C for 6 h
O=c1cc(-c2ccccc2)oc2cc(O)c(O)c(O)c12	9.9
CC(C)=CCC[C@](C)(O[C@@H]1O[C@H](CO)[C@@H](O)[C@H](O)[C@H]1O)[C@H]1CC[C@]2(C)[C@@H]1[C@H](O)C[C@@H]1[C@@]3(C)CC[C@H](O)C(C)(C)[C@@H]3[C@@H](O[C@@H]3O[C@H](CO)[C@@H](O)[C@H](O)[C@H]3O[C@@H]3O[C@@H](C)[C@H](O)[C@@H](O)[C@H]3O)C[C@]12C [Re, ginsenoside Re]	8.8
CCCCC[C@H](O)CC(=O)CCc1ccc(O)c(OC)c1	−2.3
CC(C)=CCC[C@](C)(O[C@@H]1O[C@H](CO)[C@@H](O)[C@H](O)[C@H]1O)[C@H]1CC[C@]2(C)[C@@H]1[C@H](O)C[C@@H]1[C@@]3(C)CC[C@H](O[C@@H]4O[C@H](CO)[C@@H](O)[C@H](O)[C@H]4O[C@@H]4O[C@H](CO)[C@@H](O)[C@H](O)[C@H]4O)C(C)(C)[C@@H]3CC[C@]12C [Rd, Ginsenoside Rd]	−3.7
CC(C)=CCC[C@](C)(O[C@@H]1O[C@H](CO)[C@@H](O)[C@H](O)[C@H]1O)[C@H]1CC[C@]2(C)[C@@H]1[C@H](O)C[C@@H]1[C@@]3(C)CC[C@H](O)C(C)(C)[C@@H]3[C@@H](O[C@@H]3O[C@H](CO)[C@@H](O)[C@H](O)[C@H]3O)C[C@]12C [Rg1, ginsenoside Rg1]	7.4

Batch of 5 compounds: report Accuracy (RE, %) 25°C for 6 h for each.
1. CC1(C)[C@@H](O)CC[C@]2(C)[C@H]3C(=O)C=C4[C@@H]5C[C@@](C)(C(=O)O)CC[C@]5(C)CC[C@@]4(C)[C@]3(C)CC[C@@H]12
2. O=C(O)[C@H]1O[C@@H](Oc2cc3oc(-c4ccccc4)cc(=O)c3c(O)c2O)[C@H](O)[C@@H](O)[C@@H]1O
3. COc1c(O[C@@H]2O[C@H](C(=O)O)[C@@H](O)[C@H](O)[C@H]2O)cc(O)c2c(=O)cc(-c3ccccc3)oc12 [Wogonoside, wogonoside]
4. O=c1c(O)c(-c2ccc(O)c(O)c2)oc2cc(O)cc(O)c12
5. O=C1C[C@@H](c2ccc(O[C@@H]3O[C@H](CO)[C@@H](O)[C@H](O)[C@H]3O)cc2)Oc2cc(O)ccc21

1. 1.6
2. −5.3
3. 8.5
4. −12.9
5. 5.5
